Reported values of RALB for individual entries
# Species: Rattus norvegicus
# Test description: Open TG-GATES - Regimen: Daily Repeat
# Type: toxicity, organism-based, Sprague-Dawley
# Design: regimen Daily Repeat, gender Male, age 6 weeks
# Study conditions: in vivo, po, 0 mg/kg, 72 h, tissue Plasma, route gavage, dose level Control, time 3 day
Measured endpoint: RALB (g/dL)

> print(dat)
                                   compound  measured.endpoint  readout.units  recorded.result
1  CC1=C(/C=C/C(C)=C/C=C/C(C)=C/CO)C(C)(C)CCC1 [RETINOL]               RALB           g/dL                3
2  CCOc1ccc(NC(=O)CC(C)O)cc1 (stereo not given) [BUCETIN]               RALB           g/dL              2.7
3  CN(C)CCCN1c2ccccc2CCc2ccccc21 [IMIPRAMINE]               RALB           g/dL              2.6
4                CN(C)CCN(Cc1cccs1)c1ccccn1               RALB           g/dL                3
5  CCCNC(=O)NS(=O)(=O)c1ccc(Cl)cc1 [CHLORPROPAMIDE]               RALB           g/dL              2.7

----------
Reported values of Plat for individual entries
# Species: Rattus norvegicus
# Test description: Open TG-GATES - Regimen: Daily Repeat
# Format: toxicity, organism-based, Sprague-Dawley
# Parameters: regimen Daily Repeat, gender Male, age 6 weeks
# Study conditions: in vivo, po, 0 mg/kg, […], tissue Blood, route gavage, dose level Control, time 28 day
Measured endpoint: Plat (x10_4/uL)

Compound	Recorded result
CCOC(=O)CCC(=O)O[C@H]1[C@H](O[C@@H]2[C@@H](C)[C@H](O[C@H]3C[C@@](C)(OC)[C@@H](O)[C@H](C)O3)[C@@H](C)C(=O)O[C@H](CC)[C@@](C)(O)[C@H](O)[C@@H](C)C(=O)[C@H](C)C[C@@]2(C)O)O[C@H](C)C[C@@H]1N(C)C [ERYTHROMYCIN ETHYLSUCCINATE]	99.6
CN(C)CCN(Cc1cccs1)c1ccccn1	97.6
CN1C(=O)CN=C(c2ccccc2)c2cc(Cl)ccc21	102.6
CC(C)OC(=O)C(C)(C)Oc1ccc(C(=O)c2ccc(Cl)cc2)cc1 [FENOFIBRATE]	101.9
CCOc1ccc(NC(=O)CC(C)O)cc1 (stereo unspecified)	99.2
NC(N)=Nc1nc(CSCCC(N)=NS(N)(=O)=O)cs1	98.4

----------
Reported values of Ret for individual entries
# Species on record: Rattus norvegicus
# Test description: Open TG-GATES - Regimen: Single
# Type: toxicity, organism-based, Sprague-Dawley
# Design: regimen Single, gender Male, age 6 weeks
# Study conditions: in vivo, po, 0 mg/kg, 3 h, tissue Blood, route gavage, dose level Control

Molecule	Ret (%)
NNC(=O)c1ccncc1	8.1
CN(C)CCCN1c2ccccc2CCc2ccccc21	8.2
CN(C)CCN(Cc1cccs1)c1ccccn1	7.8
CN1C(=O)CN=C(c2ccccc2)c2cc(Cl)ccc21	8.2
CCOC(=O)CCC(=O)O[C@H]1[C@H](O[C@@H]2[C@@H](C)[C@H](O[C@H]3C[C@@](C)(OC)[C@@H](O)[C@H](C)O3)[C@@H](C)C(=O)O[C@H](CC)[C@@](C)(O)[C@H](O)[C@@H](C)C(=O)[C@H](C)C[C@@]2(C)O)O[C@H](C)C[C@@H]1N(C)C [ERYTHROMYCIN ETHYLSUCCINATE]	7.9

----------
Reported values of PL for individual entries
# Organism: Rattus norvegicus
# Test description: Open TG-GATES - Regimen: Single
# Assay type: toxicity, organism-based, Sprague-Dawley
# Design: regimen Single, gender Male, age 6 weeks
# Study conditions: in vivo, po, 0 mg/kg, 24 h, tissue Plasma, route gavage, dose level Control
Measured endpoint: PL (mg/dL)

Molecule	Measured endpoint	Readout units	Recorded result
NC(N)=Nc1nc(CSCCC(N)=NS(N)(=O)=O)cs1	PL	mg/dL	147.2
CC(C)OC(=O)C(C)(C)Oc1ccc(C(=O)c2ccc(Cl)cc2)cc1 [FENOFIBRATE]	PL	mg/dL	153.6
CCCNC(=O)NS(=O)(=O)c1ccc(Cl)cc1 [CHLORPROPAMIDE]	PL	mg/dL	154
Cc1ccc(C)c(OCCCC(C)(C)C(=O)O)c1	PL	mg/dL	144.6
CCOC(=O)CCC(=O)O[C@H]1[C@H](O[C@@H]2[C@@H](C)[C@H](O[C@H]3C[C@@](C)(OC)[C@@H](O)[C@H](C)O3)[C@@H](C)C(=O)O[C@H](CC)[C@@](C)(O)[C@H](O)[C@@H](C)C(=O)[C@H](C)C[C@@]2(C)O)O[C@H](C)C[C@@H]1N(C)C [ERYTHROMYCIN ETHYLSUCCINATE]	PL	mg/dL	156.2
CC1=C(/C=C/C(C)=C/C=C/C(C)=C/CO)C(C)(C)CCC1	PL	mg/dL	154.2

----------
# Species on record: Rattus norvegicus
# Test description: Open TG-GATES - Regimen: Daily Repeat
# Assay type: toxicity, organism-based, Sprague-Dawley
# Set-up: regimen Daily Repeat, gender Male, age 6 weeks
# Study conditions: in vivo, po, 300 mg/kg, […], tissue Plasma, route gavage, dose level Middle, time 7 day
Reported values of BUN for individual entries
Measured endpoint: BUN (mg/dL)

Compound	Recorded result
NC(N)=Nc1nc(CSCCC(N)=NS(N)(=O)=O)cs1 [FAMOTIDINE]	15.6
CCOc1ccc(NC(=O)CC(C)O)cc1 (centres undefined) [BUCETIN]	15.8
COC1=CC(=O)C[C@@H](C)[C@]12Oc1c(Cl)c(OC)cc(OC)c1C2=O [GRISEOFULVIN]	13.4
CCOC(=O)CCC(=O)O[C@H]1[C@H](O[C@@H]2[C@@H](C)[C@H](O[C@H]3C[C@@](C)(OC)[C@@H](O)[C@H](C)O3)[C@@H](C)C(=O)O[C@H](CC)[C@@](C)(O)[C@H](O)[C@@H](C)C(=O)[C@H](C)C[C@@]2(C)O)O[C@H](C)C[C@@H]1N(C)C [ERYTHROMYCIN ETHYLSUCCINATE]	19

----------
# Species: Rattus norvegicus
# Test description: Open TG-GATES - Regimen: Single
# Assay type: toxicity, organism-based, Sprague-Dawley
# Design: regimen Single, gender Male, age 6 weeks
# Study conditions: in vivo, po, 0 mg/kg, 9 h, tissue Plasma, route gavage, dose level Control
Measured endpoint: GLC (mg/dL)

> print(dat)
                                   compound  readout.units  recorded.result
1  CC/C(=C(\c1ccccc1)c1ccc(OCCN(C)C)cc1)c1ccccc1 [TAMOXIFEN]          mg/dL            184.6
2  Cc1ccc(C)c(OCCCC(C)(C)C(=O)O)c1 [GEMFIBROZIL]          mg/dL            194.2
3  CCOc1ccc(NC(=O)CC(C)O)cc1 (stereo not drawn) [BUCETIN]          mg/dL            178.6

----------
Reported values of LIVER for individual entries
# Organism: Rattus norvegicus
# Test description: Open TG-GATES - Regimen: Single
# Assay type: toxicity, organism-based, Sprague-Dawley
# Design: regimen Single, gender Male, age 6 weeks
# Study conditions: in vivo, po, 0 mg/kg, 24 h, tissue Liver, route gavage, dose level Control
Measured endpoint: LIVER (g)

> print(dat)
                                    compound  measured.endpoint  recorded.result
 1  CN(C)CCCN1c2ccccc2CCc2ccccc21 [IMIPRAMINE]              LIVER             10.2
 2  COc1ccc2[nH]c([S+]([O-])Cc3ncc(C)c(OC)c3C)nc2c1 (stereo unspecified) [OMEPRAZOLE]              LIVER             11.8
 3  O=C(CCCN1CCC(O)(c2ccc(Cl)cc2)CC1)c1ccc(F)cc1 [HALOPERIDOL]              LIVER             10.6
 4  CN(C)CCCN1c2ccccc2CCc2ccc(Cl)cc21 [CLOMIPRAMINE]              LIVER               11
 5  Cc1ccc(C)c(OCCCC(C)(C)C(=O)O)c1 [GEMFIBROZIL]              LIVER             10.2
 6  CCCNC(=O)NS(=O)(=O)c1ccc(Cl)cc1 [CHLORPROPAMIDE]              LIVER             10.1
 7                CN(C)CCN(Cc1cccs1)c1ccccn1              LIVER              9.4
 8  CC(C)OC(=O)C(C)(C)Oc1ccc(C(=O)c2ccc(Cl)cc2)cc1 [FENOFIBRATE]              LIVER              9.1
 9               NNC(=O)c1ccncc1 [ISONIAZID]              LIVER             10.9
10  CN1C(=O)CN=C(c2ccccc2)c2cc(Cl)ccc21 [DIAZEPAM]              LIVER             11.2
11  C[C@@H]1C[C@H]2[C@@H]3CCC4=CC(=O)C=C[C@]4(C)[C@@]3(F)[C@@H](O)C[C@]2(C)[C@@]1(O)C(=O)CO [DEXAMETHASONE]              LIVER             11.3
